This section presents molecules with their documented melting point values.

> print(dat)
                                   molecule  readout.value
1  CCCCCCCCC(=O)OC(C)c1ccc(-c2ccc(OC)cc2)cc1 (single isomer, unassigned; (+))    59 to 60 °C
2  CCN1C(=O)CN=C(c2ccccc2F)c2cc(C(C)N)ccc21 (centres undefined)    53 to 55 °C
3  CC(C)Cn1c(Nc2cc(C(F)(F)F)ccc2C(F)(F)F)nc(C(F)(F)F)cc1=O  136 to 138 °C
4  CCOC(=O)COc1cccc(C(=O)Nc2ccccc2Sc2ccccc2-c2nnn[nH]2)c1  130 to 133 °C
5                    CCS(=O)(=O)c1ccc(I)cc1    78 to 79 °C
6  CCOC(=O)c1cnn2c1c(N1CCN(c3ccccc3)CC1)nc1ccccc12  134 to 135 °C

Entry Cc1cn(-c2ccc(NC(=O)c3ccc(Cl)c(C#Cc4ccc(NC5CCC5)nn4)c3)cc2C(F)(F)F)cn1 needs its melting point filled in; supply it.
153 to 155 °C

Identify measured melting point corresponding to COc1cc(OCCCN2CCN(c3nn(C(=O)c4ccccc4)c4cc(F)ccc34)CC2)ccc1C(C)=O
138 to 140 °C

Provide melting point value for the following molecule: CCCCn1c(C)c(C(=O)NC2CCN(CCc3ccccc3)CC2)c2cc(O)ccc21
178 to 181 °C

Consider the molecule O=C(c1ccc(C(=O)N2CC3COCC3C2)cc1)N1CC2COCC2C1 (centres undefined) and give its recorded melting point.
192 to 193 °C
